Biological target: ATP-dependent translocase ABCB1 (Homo sapiens)
Sequence (P08183 whole entry): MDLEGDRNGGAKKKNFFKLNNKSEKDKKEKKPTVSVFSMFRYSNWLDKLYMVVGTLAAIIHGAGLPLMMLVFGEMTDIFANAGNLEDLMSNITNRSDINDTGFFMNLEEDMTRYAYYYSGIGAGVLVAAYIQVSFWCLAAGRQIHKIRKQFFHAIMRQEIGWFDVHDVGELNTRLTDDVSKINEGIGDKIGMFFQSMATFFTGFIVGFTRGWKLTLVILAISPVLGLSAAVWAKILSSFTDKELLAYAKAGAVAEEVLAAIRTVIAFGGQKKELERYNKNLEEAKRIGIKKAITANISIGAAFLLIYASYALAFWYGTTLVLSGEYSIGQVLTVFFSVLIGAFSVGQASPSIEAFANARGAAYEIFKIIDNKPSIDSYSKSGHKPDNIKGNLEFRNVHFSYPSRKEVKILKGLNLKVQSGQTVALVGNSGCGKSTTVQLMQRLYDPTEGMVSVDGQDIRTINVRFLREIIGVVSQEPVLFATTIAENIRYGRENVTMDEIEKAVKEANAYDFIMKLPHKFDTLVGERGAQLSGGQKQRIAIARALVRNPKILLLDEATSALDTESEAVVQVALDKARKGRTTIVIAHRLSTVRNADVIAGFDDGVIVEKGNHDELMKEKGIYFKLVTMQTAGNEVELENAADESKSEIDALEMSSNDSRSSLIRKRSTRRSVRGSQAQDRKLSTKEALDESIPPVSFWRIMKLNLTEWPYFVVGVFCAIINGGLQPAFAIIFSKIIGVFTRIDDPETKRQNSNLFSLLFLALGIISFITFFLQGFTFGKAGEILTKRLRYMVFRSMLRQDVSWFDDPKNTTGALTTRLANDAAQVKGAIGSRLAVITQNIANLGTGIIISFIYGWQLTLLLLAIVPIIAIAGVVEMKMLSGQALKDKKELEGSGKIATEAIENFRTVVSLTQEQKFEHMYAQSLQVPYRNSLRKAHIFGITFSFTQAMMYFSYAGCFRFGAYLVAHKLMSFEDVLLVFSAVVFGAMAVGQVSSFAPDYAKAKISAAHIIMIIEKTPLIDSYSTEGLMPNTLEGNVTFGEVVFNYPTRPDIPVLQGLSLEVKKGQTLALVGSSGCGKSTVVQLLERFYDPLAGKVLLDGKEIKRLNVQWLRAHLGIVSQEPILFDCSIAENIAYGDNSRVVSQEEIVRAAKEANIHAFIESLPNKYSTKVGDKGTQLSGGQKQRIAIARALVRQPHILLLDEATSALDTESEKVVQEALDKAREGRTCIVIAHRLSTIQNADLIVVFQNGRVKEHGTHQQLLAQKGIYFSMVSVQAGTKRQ
Experiment: Inhibition of MDR1 (unknown origin) over-expressed in MDCK cells assessed as calcein accumulation incubated for 30 mins prior to Calcein-AM addition measured after 30 mins by fluorescence assay
Type: cell-based
Settings: read-out: EC50
Documented EC50 across a set of molecules

- Structure: "COc1ccc(-c2ccc(C(=O)N3CCc4cc(OC)c(OC)cc4C3)o2)cc1"
  Target Entity: "ATP-dependent translocase ABCB1 (Homo sapiens)"
  EC50 (µM): 0.91
- Structure: "COc1cc2c(cc1OC)CN(C(=O)c1ccc(-c3ccc(O)cc3)o1)CC2"
  Target Entity: "ATP-dependent translocase ABCB1 (Homo sapiens)"
  EC50 (µM): 6.4
- Structure: "COc1cc2c(cc1OC)CN(CCc1ccc(-c3ccc(F)cc3)cc1)CC2"
  Target Entity: "ATP-dependent translocase ABCB1 (Homo sapiens)"
  EC50 (µM): 2
- Structure: "COc1ccc(-c2ccc(OCCCCN3CCc4cc(OC)c(OC)cc4C3)cc2)cc1"
  Target Entity: "ATP-dependent translocase ABCB1 (Homo sapiens)"
  EC50 (µM): 0.004
- Structure: "COc1ccc(-c2ccc(OCCN3CCc4cc(OC)c(OC)cc4C3)cc2)cc1"
  Target Entity: "ATP-dependent translocase ABCB1 (Homo sapiens)"
  EC50 (µM): 0.93
- Structure: "COc1cc2c(cc1OC)CN(Cc1ccc(-c3ccc(F)cc3)cc1)CC2"
  Target Entity: "ATP-dependent translocase ABCB1 (Homo sapiens)"
  EC50 (µM): 4.9
- Structure: "COc1ccc(-c2ccc(NCCCN3CCc4cc(OC)c(OC)cc4C3)cc2)cc1"
  Target Entity: "ATP-dependent translocase ABCB1 (Homo sapiens)"
  EC50 (µM): 1.8
- Structure: "COc1ccc(-c2ccc3c(c2)C=C(CC(=O)N2CCc4cc(OC)c(OC)cc4C2)CO3)cc1"
  Target Entity: "ATP-dependent translocase ABCB1 (Homo sapiens)"
  EC50 (µM): 5.8
- Structure: "COc1ccc(-c2ccc(CN3CCc4cc(OC)c(OC)cc4C3)o2)cc1"
  Target Entity: "ATP-dependent translocase ABCB1 (Homo sapiens)"
  EC50 (µM): 4.3
- Structure: "COc1cc2c(cc1OC)CN(Cc1ccc(-c3ccc(O)cc3)cc1)CC2"
  Target Entity: "ATP-dependent translocase ABCB1 (Homo sapiens)"
  EC50 (µM): 9.3
- Structure: "COc1cc2c(cc1OC)CN(CCc1ccccc1-c1cccc(O)c1)CC2"
  Target Entity: "ATP-dependent translocase ABCB1 (Homo sapiens)"
  EC50 (µM): 0.23
- Structure: "COc1cc2c(cc1OC)CN(Cc1ccc(-c3ccc(O)cc3)o1)CC2"
  Target Entity: "ATP-dependent translocase ABCB1 (Homo sapiens)"
  EC50 (µM): 8.1
- Structure: "COc1cccc(-c2ccccc2CCN2CCc3cc(OC)c(OC)cc3C2)c1"
  Target Entity: "ATP-dependent translocase ABCB1 (Homo sapiens)"
  EC50 (µM): 0.069
- Structure: "COc1ccc(-c2ccc(CCN3CCc4cc(OC)c(OC)cc4C3)cc2)cc1"
  Target Entity: "ATP-dependent translocase ABCB1 (Homo sapiens)"
  EC50 (µM): 0.57
- Structure: "COc1ccc(-c2ccc(OCCCN3CCc4cc(OC)c(OC)cc4C3)cc2)cc1"
  Target Entity: "ATP-dependent translocase ABCB1 (Homo sapiens)"
  EC50 (µM): 1.3
- Structure: "COc1ccc(-c2ccc(CC(=O)N3CCc4cc(OC)c(OC)cc4C3)cc2)cc1"
  Target Entity: "ATP-dependent translocase ABCB1 (Homo sapiens)"
  EC50 (µM): 0.8
- Structure: "COc1ccc(-c2ccc3c(c2)C=C(CCN2CCc4cc(OC)c(OC)cc4C2)CO3)cc1"
  Target Entity: "ATP-dependent translocase ABCB1 (Homo sapiens)"
  EC50 (µM): 1.2
